IC50 overview
- tested system: RPE65 isomerohydrolase (Bos taurus)
- Construct: Bovine RPE microsomes were used as a source of the RPE65 protein; from tissue; host or cells: bovine RPE microsomes
- Sequence (Q28175 whole entry): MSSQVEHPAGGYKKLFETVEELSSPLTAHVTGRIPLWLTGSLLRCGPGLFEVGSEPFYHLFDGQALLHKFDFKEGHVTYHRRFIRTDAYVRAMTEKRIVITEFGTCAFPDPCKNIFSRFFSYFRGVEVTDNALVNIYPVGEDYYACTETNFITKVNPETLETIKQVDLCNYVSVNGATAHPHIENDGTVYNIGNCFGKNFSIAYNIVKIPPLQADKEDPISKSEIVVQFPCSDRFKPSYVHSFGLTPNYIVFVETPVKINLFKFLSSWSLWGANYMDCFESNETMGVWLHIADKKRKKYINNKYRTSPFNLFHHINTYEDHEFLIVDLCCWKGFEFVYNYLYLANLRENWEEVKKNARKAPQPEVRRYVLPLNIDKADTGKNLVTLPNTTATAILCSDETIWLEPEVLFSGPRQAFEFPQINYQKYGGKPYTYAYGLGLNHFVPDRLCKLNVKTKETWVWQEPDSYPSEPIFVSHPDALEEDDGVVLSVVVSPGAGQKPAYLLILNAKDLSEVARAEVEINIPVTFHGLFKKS
- assay notes: In vitro RPE65 isomerohydrolase assay with bovine RPE microsomes (Example 3)
- Format: biochemical
- experimental setup: in vitro RPE65 isomerohydrolase IC50 values repeated in Table 7; read-out: IC50
- Excerpt: In this Example, the effect of several PBN analogs on RPE65 isomerohydrolase activity was investigated in an in vitro assay. The chemical structures of the PBN analogs utilized are described herein above. Bovine RPE microsomes were used as a source of the RPE65 protein and all-trans-[^3H] retinol was a substrate for the isomerohydrolase assay. The produced 11-cis-[^3H] retinol was quantified by normal phase HPLC with flow scintillation analyzer. […]
Field: numeric (µM). Do not append units.

{"columns": ["smiles string", "tested system", "IC50 [µM]"],
 "data": [
  ["CC(C)(C)/[N+]([O-])=C/c1cccc(F)c1", "RPE65 isomerohydrolase (Bos taurus)", 280]
]}

Moving on to the next compound.
[ask] I'm curious: which IC50 was measured for CC(C)(C)/[N+]([O-])=C/c1ccccc1 tested on RPE65 isomerohydrolase (Bos taurus)?
[reply] 100
